# System: IRAK1;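 further: KINOMEscan scanMAX binding as percent activity remaining versus control; lower means stronger binding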
# condition_description: Compound Concentration (nM):1000
measured_endpoint: Percent Control (%)
Form entry: value (%) — number only.

* COc1cc(C=NNc2ncnc3c2cnn3-c2ccccc2)ccc1O [GW513184X] | 43
* Cl.O=C(O[C@H]1CN[C@H](C#Cc2cc3ncnc(Nc4ccc5c(cnn5Cc5ccccc5)c4)c3s2)C1)N1CCOCC1 [GSK200398A] | 100
* C[C@@H](Oc1cc(-n2cnc3ccc(OC4CCN(C)CC4)cc32)sc1C(N)=O)c1ccccc1Cl [GSK579289A] | 73

Dear colleague, I am looking for the recorded Percent Control of the following molecule: O=C1Nc2ccc(C(=O)c3ccco3)cc2C1=Cc1cc(Cl)c(O)c(Cl)c1 [GW406108X]
86

Another molecule to check: CCc1ccc(Oc2nccc(-c3c(-c4ccc(F)cc4)ncn3C3CCNCC3)n2)cc1
95

Another molecule to check: Cc1cc(O)cc(C)c1/C=C/c1cncc(C(N)=O)c1 [GW435821X]
100

Another molecule to check: COc1cccc(-n2ncc3c(N/N=C/c4ccncc4)ncnc32)c1 [GW784752X]
37

Another molecule to check: Cl.c1ccc(Cc2nc3ccc(Nc4ncnc5ccccc45)cc3[nH]2)cc1 [GR269666A]
100
